The measurements presented in this section are drawn from paper PMC12521504.

Parameter 'readout' = pKi; parameter 'system' = C-domain of mACE (Mus musculus, UniProt P09470).
Numbers only, as −log10 of the molar value.

O=C(O)CNC(=O)C(CS)Cc1ccccc1 (centres unmarked): 6.77

Moving on to another compound below.
Name the reported pKi value associated with the compound O=C(c1ccc(OCCN2CCCCC2)cc1)c1c(-c2ccc(O)cc2)sc2cc(O)ccc12
4.52

====

# STUDY_TARGET: N-domain of mACE (Mus musculus, UniProt P09470)
# METHOD_DESCRIPTION: ACE N-domain specific enzymatic assay with Abz-SDK
# Assay type: biochemical
ATTRIBUTE_MEASURED: IC50
Answer by giving the amount and then stating its unit.

Which value of IC50 has been reported for O=C(O)CNC(=O)C(CS)Cc1ccccc1 (stereo not shown) in the records?
1300 nM

====

# STUDY_TARGET: N-domain of mACE (Mus musculus, UniProt P09470)
# Sequence (P09470 35-1312): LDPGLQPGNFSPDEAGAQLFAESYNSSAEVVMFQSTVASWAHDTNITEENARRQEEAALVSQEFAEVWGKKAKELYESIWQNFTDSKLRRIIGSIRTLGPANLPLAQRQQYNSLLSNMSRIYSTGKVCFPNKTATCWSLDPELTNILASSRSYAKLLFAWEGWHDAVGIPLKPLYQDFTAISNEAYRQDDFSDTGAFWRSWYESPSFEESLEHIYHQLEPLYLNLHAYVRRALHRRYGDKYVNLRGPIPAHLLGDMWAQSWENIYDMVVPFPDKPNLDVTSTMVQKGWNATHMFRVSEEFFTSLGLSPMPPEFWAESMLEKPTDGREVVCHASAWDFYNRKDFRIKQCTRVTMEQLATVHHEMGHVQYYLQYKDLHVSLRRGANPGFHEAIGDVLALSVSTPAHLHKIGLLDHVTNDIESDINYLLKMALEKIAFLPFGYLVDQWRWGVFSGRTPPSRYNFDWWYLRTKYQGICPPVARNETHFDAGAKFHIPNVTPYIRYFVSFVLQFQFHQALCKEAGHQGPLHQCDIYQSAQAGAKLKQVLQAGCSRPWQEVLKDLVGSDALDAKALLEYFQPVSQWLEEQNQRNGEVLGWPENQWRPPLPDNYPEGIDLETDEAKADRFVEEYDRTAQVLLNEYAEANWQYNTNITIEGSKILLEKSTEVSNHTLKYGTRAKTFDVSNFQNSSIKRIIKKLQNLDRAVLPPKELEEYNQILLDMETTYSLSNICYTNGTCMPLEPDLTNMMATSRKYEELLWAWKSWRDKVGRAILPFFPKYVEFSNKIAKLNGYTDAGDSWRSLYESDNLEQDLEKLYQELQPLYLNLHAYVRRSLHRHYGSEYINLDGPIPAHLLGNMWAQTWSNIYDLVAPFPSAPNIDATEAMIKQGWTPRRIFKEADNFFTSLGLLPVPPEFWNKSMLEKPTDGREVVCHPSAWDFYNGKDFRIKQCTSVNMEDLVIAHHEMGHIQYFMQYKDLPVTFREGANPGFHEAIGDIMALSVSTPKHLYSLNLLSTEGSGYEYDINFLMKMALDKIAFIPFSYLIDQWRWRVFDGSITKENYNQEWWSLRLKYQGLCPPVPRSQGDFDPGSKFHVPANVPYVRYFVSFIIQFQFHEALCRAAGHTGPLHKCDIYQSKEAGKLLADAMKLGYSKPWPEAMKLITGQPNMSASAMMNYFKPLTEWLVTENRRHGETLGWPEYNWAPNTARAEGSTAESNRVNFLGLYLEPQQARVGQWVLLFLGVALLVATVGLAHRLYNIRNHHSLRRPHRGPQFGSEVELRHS
# METHOD_DESCRIPTION: ACE N-domain specific enzymatic assay with Abz-SDK
# Assay type: biochemical
# STATED_CONDITIONS: read-out: IC50 N-domain; 40 µM Abz-SDK(Dnp)P-OH, 35 nM mACE
ATTRIBUTE_MEASURED: pIC50
Give bare numbers, as −log10 of the molar value.

Which pIC50 is listed for O=C(c1ccc(OCCN2CCCCC2)cc1)c1c(-c2ccc(O)cc2)sc2cc(O)ccc12 [Raloxifene, raloxifene] ?
3.49

====

# STUDY_TARGET: mouse ACE (mACE) (Mus musculus, UniProt P09470)
# METHOD_DESCRIPTION: Fluorescence-based ACE enzymatic assay with Mca-[…]
# Assay type: biochemical
Provide the reported IC50 of each item.
Give bare numbers, in µM.

O=C(c1ccc(OCCN2CCCCC2)cc1)c1c(-c2ccc(O)cc2)sc2cc(O)ccc12: 102

# next compound below
What does the data say about its IC50? Entry: O=C(O)CNC(=O)C(CS)Cc1ccccc1 (centres unmarked)
2.36
